Cited source for all entries: PubChem BioAssay (Tox21)

assay: qHTS assay to test for compound auto fluorescence at 590 nm (red) in HEK293 cell free culture (AID 720683); conditions: cell-free medium autofluorescence, Ex540/Em590 red; series mostly up to 46 µM
Activity calls are given as the source filed them. Calls come from the whole dose curve; as a rule, active = well fitted curve in the direction sought with a large enough effect in the repeat runs; inconclusive = weak or mixed curves; inactive = flat fitted curve, though single readings scatter.
Endpoint Label: outcome

[[record]]
compound = "CC1(C)N=C(N)N=C(N)N1c1ccc(Cl)cc1"
endpoint_label = "outcome"
measured_value = "inactive"

[[record]]
compound = "NC(=O)c1ccc[n+]([C@@H]2O[C@H](COP(=O)([O-])OP(=O)(O)OC[C@H]3O[C@@H](n4cnc5c(N)ncnc54)[C@H](O)[C@@H]3O)[C@@H](O)[C@H]2O)c1"
endpoint_label = "outcome"
measured_value = "inactive"

[[record]]
compound = "CO[C@@]1(NC(=O)C2SC(=C(C(N)=O)C(=O)O)S2)C(=O)N2C(C(=O)O)=C(CSc3nnnn3C)CS[C@@H]21 (some centres undefined)"
endpoint_label = "outcome"
measured_value = "inactive"

[[record]]
compound = "CCSc1ccc2c(c1)N(CCCN1CCN(C)CC1)c1ccccc1S2"
endpoint_label = "outcome"
measured_value = "inactive"


----------
target: Androgen receptor (Homo sapiens) (UniProt P10275); assay: qHTS assay to identify small molecule antagonists of the androgen receptor (AR) signaling pathway using the MDA cell line (AID 743042; note: nearly all actives have a fitted effect of over 55% in size); conditions: MDA-kb2 AR-luc, MMTV luciferase, R1881 antagonist, 16 h; series mostly up to 70.3 µM
Sequence (P10275 whole entry, looked up): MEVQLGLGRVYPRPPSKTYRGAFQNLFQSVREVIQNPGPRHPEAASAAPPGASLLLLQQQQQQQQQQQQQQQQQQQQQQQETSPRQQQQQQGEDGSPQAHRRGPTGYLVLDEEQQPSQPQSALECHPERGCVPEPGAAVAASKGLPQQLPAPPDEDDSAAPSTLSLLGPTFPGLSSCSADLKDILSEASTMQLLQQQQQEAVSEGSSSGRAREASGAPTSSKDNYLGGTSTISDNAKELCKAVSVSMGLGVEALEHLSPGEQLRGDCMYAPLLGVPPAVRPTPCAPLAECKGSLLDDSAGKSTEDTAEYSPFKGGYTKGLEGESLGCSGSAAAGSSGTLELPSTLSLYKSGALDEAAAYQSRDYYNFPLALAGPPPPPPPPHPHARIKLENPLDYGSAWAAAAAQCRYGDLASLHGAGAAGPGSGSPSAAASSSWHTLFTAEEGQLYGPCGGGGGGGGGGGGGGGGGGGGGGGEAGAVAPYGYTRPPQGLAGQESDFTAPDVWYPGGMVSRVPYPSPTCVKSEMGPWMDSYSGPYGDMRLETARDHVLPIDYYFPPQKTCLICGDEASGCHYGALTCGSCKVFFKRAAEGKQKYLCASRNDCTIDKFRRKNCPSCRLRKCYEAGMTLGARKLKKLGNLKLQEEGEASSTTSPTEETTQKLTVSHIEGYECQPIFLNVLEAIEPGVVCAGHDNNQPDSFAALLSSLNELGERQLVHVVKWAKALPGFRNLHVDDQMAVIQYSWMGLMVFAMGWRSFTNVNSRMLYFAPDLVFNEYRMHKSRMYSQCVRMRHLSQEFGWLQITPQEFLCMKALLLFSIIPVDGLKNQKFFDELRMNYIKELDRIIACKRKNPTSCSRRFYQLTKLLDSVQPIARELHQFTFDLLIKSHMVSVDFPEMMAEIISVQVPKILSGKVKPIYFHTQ
Inconclusive results are not listed. Calls of active or inactive are those of the source. The call rests on the fitted dose curve; in most records, active means well fitted inhibition curve with a large enough effect in the repeat runs; inconclusive means weak or mixed curves, or effect the other way; inactive means no such curve, though single readings can be large or run the other way.
Pick one: Yes (active), No (inactive)

Known results for compounds:
[[record]]
compound = "CCC(=O)OCC(=O)[C@@]1(OC(=O)CC)[C@H](C)C[C@H]2[C@H]3[C@H]([C@@H](O)C[C@@]21C)[C@@]1(C)C=CC(=O)C=C1C[C@H]3Cl"
qualitative_label = "No"

[[record]]
compound = "C[C@@H]1C[C@H]2[C@@H]3CCC4=CC(=O)C=C[C@]4(C)[C@@]3(F)[C@@H](O)C[C@]2(C)[C@@]1(O)C(=O)COC(=O)c1cccc(S(=O)(=O)O)c1"
qualitative_label = "No"

[[record]]
compound = "CCc1ccc(S(=O)(=O)O)cc1"
qualitative_label = "No"

[[record]]
compound = "COc1cc(/C=C/C(=O)N2CCN(CC(=O)N3CCCC3)CC2)cc(OC)c1OC"
qualitative_label = "No"

[[record]]
compound = "Nc1c(Br)cc(Br)cc1CNC1CCC(O)CC1 (configuration not stated)"
qualitative_label = "No"

[[record]]
compound = "CC#CCC(C)[C@H](O)/C=C/[C@@H]1[C@H]2c3cccc(CCCC(=O)O)c3O[C@H]2C[C@H]1O (some centres not stated)"
qualitative_label = "No"


Identify the outcome logged in this assay for the compound shown: C=C1CC[C@H](O)CC1=C/C=C1\CCC[C@]2(C)[C@@H]([C@H](C)CCCC(C)(C)O)CC[C@@H]12
Yes

Hey, what did the test say about NNc1nnc(Cc2ccncc2)c2ccccc12 ?
No

Would you mind telling me which call this test gave CN(C)CCCN1c2ccccc2C(C)(C)c2ccccc21 ?
No

Status in this test for C=CC[C@@H]1/C=C(\C)C[C@H](C)C[C@H](OC)[C@H]2O[C@@](O)(C(=O)C(=O)N3CCCC[C@H]3C(=O)O[C@H](/C(C)=C/[C@@H]3CC[C@@H](O)[C@H](OC)C3)[C@H](C)[C@@H](O)CC1=O)[C@H](C)C[C@@H]2OC ?
No

Could you check what this test reported for CC(C)=CCC/C(C)=C/C=C/C(C)=C/C=C/C(C)=C/C=C/C=C(C)/C=C/C=C(C)/C=C/C=C(\C)CCC=C(C)C ?
No

GET /call?item= CCCCCCCCCCCCCCCCCCCCCC(=O)Nc1ccn([C@@H]2O[C@H](CO)[C@@H](O)[C@@H]2O)c(=O)n1 returns the recorded outcome of this test.
No

Each compound tested received a call. Report the one for CCCCC(F)(F)[C@@]1(O)CC[C@H]2[C@@H](CC(=O)[C@@H]2CCCCCCC(=O)O)O1 .
No

----------
target: Androgen receptor (Homo sapiens) (UniProt P10275); assay: qHTS assay to identify small molecule antagonists of the androgen receptor (AR) signaling pathway (AID 743035); conditions: HEK293 AR-UAS-bla, R1881-stimulated, beta-lactamase FRET, 16 h; series mostly up to 58.5 µM
Records with an inconclusive call do not appear. Calls of active or inactive are those of the source. Calls follow the shape of the dose curve; as a rule, active = well fitted inhibition curve with a large enough effect in the signal ratio in the repeat runs (not every such curve was filed as active); inconclusive = weak or mixed curves, or effect the other way; inactive = no such curve, though single readings can be large or run the other way; the % refers to the signal ratio.
Parameter call: string, one of true for active, false for inactive

Illustrative cases are given below, each with its answer.
[[record]]
compound = "CS(=O)(=O)OCC(O)C(O)COS(C)(=O)=O (configuration not stated)"
qualitative_label = "false"

[[record]]
compound = "CCOC(=O)CCC(=O)O[C@H]1[C@H](O[C@@H]2[C@@H](C)[C@H](O[C@H]3C[C@@](C)(OC)[C@@H](O)[C@H](C)O3)[C@@H](C)C(=O)O[C@H](CC)[C@@](C)(O)[C@H](O)[C@@H](C)C(=O)[C@H](C)C[C@@]2(C)O)O[C@H](C)C[C@@H]1N(C)C"
qualitative_label = "false"

[[record]]
compound = "C=CC[C@@H]1/C=C(\\C)C[C@H](C)C[C@H](OC)[C@H]2O[C@@](O)(C(=O)C(=O)N3CCCC[C@H]3C(=O)O[C@H](/C(C)=C/[C@@H]3CC[C@@H](O)[C@H](OC)C3)[C@H](C)[C@@H](O)CC1=O)[C@H](C)C[C@@H]2OC"
qualitative_label = "true"

[[record]]
compound = "CCCCCCCCCCCCCCCC(=O)OC[C@@H](COP(=O)([O-])OCC[N+](C)(C)C)OC(=O)CCCCCCCCCCCCCCC"
qualitative_label = "false"

[[record]]
compound = "COc1cc(/C=C/C(=O)N2CCN(CC(=O)N3CCCC3)CC2)cc(OC)c1OC"
qualitative_label = "false"

[[record]]
compound = "OC(CN1CCCCC1)c1cc(-c2ccccc2)on1 (configuration not stated)"
qualitative_label = "false"


Would you mind telling me which call this test gave CC(=O)O[C@H]1CC[C@@]2(C)C(=CC[C@@H]3[C@@H]2CC[C@]2(C)C(c4cccnc4)=CC[C@@H]32)C1 ?
false

----------
Assay: qHTS assay for small molecules that induce genotoxicity in human embryonic kidney cells expressing luciferase-tagged ATAD5 - cell viability (AID 651634); note: nearly all actives have a fitted effect of over 25% in size
Conditions: HEK293T ATAD5-luc cells viability, CellTiter-Fluor, 15.5 h; series mostly up to 83.3 µM
Description: National Center for Advancing Translational Sciences [NCATS] NIH Chemical Genomics Center [NCGC] U.S. Environmental Protection Agency [EPA] National Institutes of Environmental Health Sciences [NIEHS] National Toxicology Program [NTP] U.S. Food and Drug Administration [FDA] Enhanced Level of Genome Instability Gene 1 (ELG1; human ATAD5) protein levels increase in response to various types of DNA damage. […]
Inconclusive results are not listed. Activity calls are given as the source filed them. Calls come from the whole dose curve.
// allowed return values: TRUE (active), FALSE (inactive)

Please state the recorded outcome for this compound: O=C(Nc1ccc(/C=C/c2ccc(NC(=O)c3cc(S(=O)(=O)O)c4cccnc4c3O)cc2S(=O)(=O)O)c(S(=O)(=O)O)c1)c1cc(S(=O)(=O)O)c2cccnc2c1O
FALSE

Test call, this compound: Cc1cc(Nc2ccccc2C(=O)O)ccc1Cl
FALSE

For CC(=O)O[C@H]1CC[C@@]2(C)C(=CC[C@H]3[C@@H]4CC[C@H](C(C)=O)[C@@]4(C)CC[C@@H]32)C1 , which call appears in the assay record?
FALSE

For CCCCCCOc1ccc(C(=N)N(CCCC)CCCC)c2ccccc12 , which call appears in the assay record?
TRUE

----------
test: qHTS assay to identify small molecule antagonists of the thyroid receptor (TR) signaling pathway (AID 743065); conditions: GH3.TRE-Luc, T3-stimulated luciferase inhibition, 23.5 h; series mostly up to 70.3 µM; note: nearly all actives have a fitted effect of over 55% in size
Inconclusive results are not listed. Activity calls are given as the source filed them. The call rests on the fitted dose curve; in most records, active means well fitted inhibition curve with a large enough effect in the repeat runs; inconclusive means weak or mixed curves; inactive means no such curve, though single readings can be large or run the other way. Starred links: 1 amine or outer side, 2 acyl side, 3 side chain; linkers in the order of their positions; H or OH if unused. Positions of bridges follow the written chain, without caps; N, C: chain ends. Non-standard residues stand in square brackets, D forms with d. Residues, ends and D or L forms follow the SMILES beside them. *: point of attachment. X5 = NC1=N[C@@H]([C@H](N[*:1])C(=O)[*:2])C[C@H](O)N1; ΔAla(Z-3-ureido) = NC(=O)N/C=C(\N)C(=O)O; β3hOrn = NCCC[C@H](N)CC(=O)*; Dap = NC[C@H](N)C(=O)O
In this exercise, the only acceptable responses are active, inactive

[[record]]
compound = "NCCC[C@H](N)CC(=O)N[C@H]1CNC(=O)[C@H]([C@H]2C[C@H](O)NC(N)=N2)NC(=O)/C(=C/NC(N)=O)NC(=O)[C@H](CO)NC(=O)[C@H](CO)NC1=O (β3hOrn-[Dap]SS[ΔAla(Z-3-ureido)][X5]; lactam 1-C)"
qualitative_label = "inactive"


Call for entry CC(=O)Nc1c(I)c(C(=O)O)c(I)c(N(C)C(C)=O)c1I :
inactive

How was CCOC(=O)[C@H](CS)NCCN[C@@H](CS)C(=O)OCC classified in this test?
inactive

Hi team, can someone confirm the assay call for O=C(CCCCCCCCCCCCC1CCCC1)Nc1ccc(S(=O)(=O)c2ccc(NC(=O)CCCCCCCCCCCCC3CCCC3)cc2)cc1 ?
inactive

How did this test come out for O=P(O)(O)OC(CO)CO ?
inactive

Please indicate how the test categorized C[C@]12CCC(=O)C=C1CC[C@@H]1[C@@H]2[C@@H](O)C[C@@]2(C)[C@H]1CC[C@]2(O)C(=O)COP(=O)(O)O .
inactive

What call does the record list for C=CCN1CCCC1CNC(=O)c1cc(S(N)(=O)=O)cc(OC)c1OC (stereo not drawn) ?
inactive

Returns: the outcome recorded for CCCCC(=O)OCC(=O)[C@]1(O)Cc2c(O)c3c(c(O)c2[C@@H](O[C@H]2C[C@H](NC(=O)C(F)(F)F)[C@H](O)[C@H](C)O2)C1)C(=O)c1c(OC)cccc1C3=O in this assay.
active

For CCCCCCCCCCCCOCCCN , which call appears in the assay record?
inactive

What is the recorded call for this compound in the test? Cc1cc(Nc2ccccc2C(=O)O)ccc1Cl
active
